Values were extracted from ChEMBL document CHEMBL6071207.

assay_target: Bifunctional epoxide hydrolase 2 (Mus musculus)
Sequence (P34914 whole entry): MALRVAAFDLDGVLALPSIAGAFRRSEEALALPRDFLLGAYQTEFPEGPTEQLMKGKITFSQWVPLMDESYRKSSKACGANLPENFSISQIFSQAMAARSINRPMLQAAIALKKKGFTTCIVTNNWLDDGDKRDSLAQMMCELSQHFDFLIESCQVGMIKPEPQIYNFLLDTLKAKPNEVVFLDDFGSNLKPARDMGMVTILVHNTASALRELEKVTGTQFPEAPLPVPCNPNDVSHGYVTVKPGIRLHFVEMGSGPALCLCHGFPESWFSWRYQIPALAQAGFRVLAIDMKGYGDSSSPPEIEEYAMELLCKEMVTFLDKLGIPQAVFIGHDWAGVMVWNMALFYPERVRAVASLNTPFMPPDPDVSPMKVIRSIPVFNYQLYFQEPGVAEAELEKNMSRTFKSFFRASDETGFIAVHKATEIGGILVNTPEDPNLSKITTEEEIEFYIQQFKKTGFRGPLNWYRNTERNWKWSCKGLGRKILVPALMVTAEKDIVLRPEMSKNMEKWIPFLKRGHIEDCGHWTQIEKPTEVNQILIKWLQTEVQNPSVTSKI
assay_explanation: Inhibition of mouse recombinant sEH using fluorogenic substrate
pIC50: −log10 of the molar value.
measured_quantity: pIC50

Here's what some known entries look like.
O=C1CCC(N2C(=O)c3cc(F)c(N4CCN(C(=O)CCCCCCCCNC(=O)c5ccc(O[C@H]6CC[C@H](NC(=O)Nc7ccc(OC(F)(F)F)cc7)CC6)cc5)CC4)cc3C2=O)C(=O)N1 (some centres undefined) | 8.66
O=C1CCC(N2C(=O)c3ccc(N4CCN(C(=O)CCCCCCCCNC(=O)c5ccc(O[C@H]6CC[C@H](NC(=O)Nc7ccc(OC(F)(F)F)cc7)CC6)cc5)CC4)cc3C2=O)C(=O)N1 (some centres undefined) | 8.00

P: O=C1CCC(N2C(=O)c3cc(F)c(N4CCN(CC5CCN(C(=O)CCCCCCCCNC(=O)c6ccc(O[C@H]7CC[C@H](NC(=O)Nc8ccc(OC(F)(F)F)cc8)CC7)cc6)CC5)CC4)cc3C2=O)C(=O)N1 (some centres undefined)
Q: O=C1CCC(N2C(=O)c3cccc(NCCOCCOCCOCCOCCC(=O)N4CCC(NC(=O)Nc5ccc(OC(F)(F)F)cc5)CC4)c3C2=O)C(=O)N1 (centres undefined)
// task: argmin of pIC50 over [ P , Q ] // output: label of the selected item
P
(P: 7.70, Q: 8.34)
